- TGT: human mTOR enzyme (Homo sapiens, UniProt P42345)
- Sequence (P42345 1360-2549 limits assumed): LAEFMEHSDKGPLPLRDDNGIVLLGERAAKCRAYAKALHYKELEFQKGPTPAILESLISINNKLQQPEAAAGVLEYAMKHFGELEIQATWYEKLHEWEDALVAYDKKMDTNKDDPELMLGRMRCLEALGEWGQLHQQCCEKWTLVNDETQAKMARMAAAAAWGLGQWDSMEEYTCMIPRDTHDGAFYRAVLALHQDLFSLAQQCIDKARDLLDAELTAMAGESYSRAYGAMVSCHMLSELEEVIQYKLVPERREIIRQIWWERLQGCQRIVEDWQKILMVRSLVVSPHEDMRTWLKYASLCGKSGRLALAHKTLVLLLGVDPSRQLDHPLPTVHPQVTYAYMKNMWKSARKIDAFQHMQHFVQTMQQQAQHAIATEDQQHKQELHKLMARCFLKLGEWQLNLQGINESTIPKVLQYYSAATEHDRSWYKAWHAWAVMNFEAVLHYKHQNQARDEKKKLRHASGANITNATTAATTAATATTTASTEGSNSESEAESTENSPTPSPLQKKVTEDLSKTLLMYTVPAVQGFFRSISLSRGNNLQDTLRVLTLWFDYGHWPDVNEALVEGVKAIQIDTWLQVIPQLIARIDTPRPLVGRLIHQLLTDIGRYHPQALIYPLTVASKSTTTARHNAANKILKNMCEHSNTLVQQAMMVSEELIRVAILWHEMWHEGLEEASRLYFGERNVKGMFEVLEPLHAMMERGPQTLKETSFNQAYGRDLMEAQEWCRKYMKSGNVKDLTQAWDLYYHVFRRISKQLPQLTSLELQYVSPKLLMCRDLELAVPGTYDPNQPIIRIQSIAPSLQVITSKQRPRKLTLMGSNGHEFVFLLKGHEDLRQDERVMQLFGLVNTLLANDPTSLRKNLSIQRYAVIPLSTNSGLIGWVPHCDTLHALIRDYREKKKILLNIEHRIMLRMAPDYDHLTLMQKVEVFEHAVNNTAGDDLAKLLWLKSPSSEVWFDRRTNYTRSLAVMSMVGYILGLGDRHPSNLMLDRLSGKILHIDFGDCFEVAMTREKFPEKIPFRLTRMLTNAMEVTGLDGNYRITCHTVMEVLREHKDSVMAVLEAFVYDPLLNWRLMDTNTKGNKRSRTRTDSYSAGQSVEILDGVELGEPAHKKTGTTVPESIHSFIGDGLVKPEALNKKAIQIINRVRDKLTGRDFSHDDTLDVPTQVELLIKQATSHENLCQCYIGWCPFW
- TEST_DESCRIPTION: HTRF mTOR enzyme (kinase) assay
- Assay type: biochemical
- CONDITION_CONTEXT: rated class; 5 μM ATP, 0.2 μM GST-S6K; read-out: hMTOR IC50
pIC50: −log10 of the molar value.
Each entry below carries its recorded pIC50.

1) COCCO[C@]1(C(=O)NO)CC[C@@H](c2nc3c(-c4ccc(-c5ccccc5)nc4)cnn3c(N)c2C(C)=O)CC1 [Compound 102]: 7.00 to 9.00

Task: Given the compound Nc1c(Br)c([C@H]2CC[C@@](OCCN3CCOCC3)(C(=O)O)CC2)nc2c(-c3ccc(-c4ccccc4)nc3)cnn12 [Compound 65] , write its reported pIC50.
Result: 7.00 to 9.00

Task: Given the compound COC(=O)c1cc(-c2ccc(-c3cnn4c(N)c(C(C)=O)c([C@H]5CC[C@@](O)(CO)CC5)nc34)cn2)ccc1OC [Compound 153] , write its reported pIC50.
Result: 7.00 to 9.00

Task: Given the compound COCCOCC1(C(=O)O)CCC(c2nc3c(-c4ccc(-c5ccccc5)nc4)cnn3c(N)c2C(C)=O)CC1 (stereo not drawn) [Compound 24] , write its reported pIC50.
Result: 7.00 to 9.00

Task: Given the compound COCCO[C@]1(C(=O)c2nnc[nH]2)CC[C@H](c2nc3c(-c4ccc(-c5ccccc5)nc4)cnn3c(N)c2S(C)(=O)=O)CC1 [Compound 124] , write its reported pIC50.
Result: 7.00 to 9.00

Task: Given the compound COCCO[C@]1(C(=O)NN)CC[C@@H](c2nc3c(-c4cnn(-c5ccccc5)c4)cnn3c(N)c2S(C)(=O)=O)CC1 [Compound 107] , write its reported pIC50.
Result: 7.00 to 9.00

Task: Given the compound COCCO[C@]1(C(=O)O)CC[C@H](c2nc3c(-c4ccc(-c5cscn5)nc4)cnn3c(N)c2C(C)=O)CC1 [Compound 61] , write its reported pIC50.
Result: 7.00 to 9.00

Task: Given the compound COCCO[C@]1(c2nnn[nH]2)CC[C@@H](c2nc3c(-c4cnn(-c5ccccc5)c4)cnn3c(N)c2S(C)(=O)=O)CC1 [Compound 118] , write its reported pIC50.
Result: 7.00 to 9.00

Task: Given the compound COC[C@]1(C(=O)O)CC[C@@H](c2nc3c(-c4cnc5ccc(F)cc5c4)cnn3c(N)c2Br)CC1 [Compound 8] , write its reported pIC50.
Result: 7.00 to 9.00

Task: Given the compound Nc1c(Br)c([C@H]2CC[C@@](O)(CC(=O)O)CC2)nc2c(-c3cnn(-c4ccccc4)c3)cnn12 [Compound 79] , write its reported pIC50.
Result: 7.00 to 9.00

Task: Given the compound COCCOC1(CO)CCC(c2nc3c(-c4cnn(-c5ccccc5)c4)cnn3c(N)c2C(C)=O)CC1 (stereo not drawn) [Compound 87] , write its reported pIC50.
Result: 7.00 to 9.00

Task: Given the compound CO[C@]1(CC(=O)O)CC[C@@H](c2nc3c(-c4ccc(-c5ccccc5)nc4)cnn3c(N)c2Br)CC1 [Compound 81] , write its reported pIC50.
Result: 6.00 to 7.00

Task: Given the compound COCCO[C@]1(C(=O)O)CC[C@@H](c2nc3c(-c4cnc(-c5ccccc5)nc4)cnn3c(N)c2S(C)(=O)=O)CC1 [Compound 46] , write its reported pIC50.
Result: 7.00 to 9.00

Task: Given the compound Nc1c(Br)c(C2CCC(O)(CO)CC2)nc2c(-c3cnc4ccc(F)cc4c3)cnn12 (stereo not drawn) [Compound 136] , write its reported pIC50.
Result: 7.00 to 9.00

Task: Given the compound CC(=O)c1c(N)n2ncc(-c3cnn(-c4cnn(C)c4)c3)c2nc1[C@H]1CC[C@](O)(CO)CC1 [Compound 149] , write its reported pIC50.
Result: 6.00 to 7.00

Task: Given the compound COc1ccc(-c2ccc(-c3cnn4c(N)c(C(C)=O)c(C5CCC(CO)(OC)CC5)nc34)cn2)cn1 (stereo not drawn) [Compound 171] , write its reported pIC50.
Result: 7.00 to 9.00

Task: Given the compound CO[C@]1(C(=O)O)CC[C@@H](c2nc3c(-c4cnc5ccc(F)cc5c4)cnn3c(N)c2Br)CC1 [Compound 33] , write its reported pIC50.
Result: 7.00 to 9.00
